Molecular target: WEE1 kinase enzyme (Homo sapiens (Human), UniProt P30291)
Sequence (P30291 whole entry): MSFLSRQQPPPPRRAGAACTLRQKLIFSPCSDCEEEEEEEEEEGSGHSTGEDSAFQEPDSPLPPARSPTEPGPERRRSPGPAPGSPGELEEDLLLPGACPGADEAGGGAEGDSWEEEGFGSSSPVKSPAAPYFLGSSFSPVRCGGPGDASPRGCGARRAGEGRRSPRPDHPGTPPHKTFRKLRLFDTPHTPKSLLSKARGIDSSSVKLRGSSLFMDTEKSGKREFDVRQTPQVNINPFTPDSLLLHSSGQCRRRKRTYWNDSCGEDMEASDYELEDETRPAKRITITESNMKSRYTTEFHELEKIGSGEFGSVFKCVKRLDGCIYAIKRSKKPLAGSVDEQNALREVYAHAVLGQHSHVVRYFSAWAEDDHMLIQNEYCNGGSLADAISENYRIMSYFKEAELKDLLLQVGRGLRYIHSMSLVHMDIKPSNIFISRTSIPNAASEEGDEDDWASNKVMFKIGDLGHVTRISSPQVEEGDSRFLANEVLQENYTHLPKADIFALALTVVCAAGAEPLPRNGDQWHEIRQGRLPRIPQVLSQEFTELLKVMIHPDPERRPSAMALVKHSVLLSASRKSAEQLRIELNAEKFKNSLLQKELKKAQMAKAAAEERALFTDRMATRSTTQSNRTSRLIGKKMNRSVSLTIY
readout_kind: pIC50
Formally, pIC50 is defined as -log10 of the concentration c, with c in mol/L.

## Task Item under review: CC(C)(O)c1cccc(-n2c3nc(Nc4ccc5c(c4)CNCC5)ncc3c(=O)n2C2CC2)n1 . Reported pIC50?
## Result 8.02

## Task Could you tell me which pIC50 is on file for CC(C)n1c(=O)c2cnc(Nc3ccc4c(c3)CCNC4)nc2n1-c1ccc(F)cc1 ?
## Result 7.54

## Task // returns reported pIC50 for input CC(C)n1c(=O)c2cnc(Nc3ccc4c(c3)CNCC4)nc2n1-c1ccnc(C(C)(C)C)n1
## Result 8.70

## Task # query: pIC50 of entry CC(C)n1c(=O)c2cnc(Nc3ccc4c(c3)CCNC4)nc2n1-c1ccc(N(C)C)c(C(C)(C)C)c1
## Result 6.81

## Task Quick check: pIC50 of CC(C)n1c(=O)c2cnc(Nc3ccc4c(c3)CNCC4)nc2n1-c1ccc(F)cn1 ?
## Result 7.34

## Task Sample CC(C)n1c(=O)c2cnc(Nc3ccc4c(c3)CCNC4)nc2n1-c1ccn(C)n1 — what was its pIC50?
## Result 7.31

## Task Sample CCn1c(=O)c2cnc(Nc3cnc4c(c3)CNCC4)nc2n1-c1cccc(C(C)(C)O)n1 — what was its pIC50?
## Result 7.24

## Task Please look up its pIC50: CCn1c(=O)c2cnc(Nc3ccc4c(c3)CNC4)nc2n1-c1cccc(C(C)(C)O)n1
## Result 8.40

## Task Name the recorded pIC50 for CC(C)n1c(=O)c2cnc(Nc3ccc4c(c3)CCNC4)nc2n1-c1ccnc(N(C)C)c1 .
## Result 7.92

## Task Which pIC50 is reported for this compound? CC(C)n1c(=O)c2cnc(Nc3ccc4c(c3)CCNC4)nc2n1-c1cccc(C(C)(C)C#N)n1
## Result 8.30

## Task Using the record for CC(C)n1c(=O)c2cnc(Nc3ccc4c(c3)CCNC4)nc2n1-c1ccnc(C(C)(C)O)c1 , report its pIC50.
## Result 7.85

## Task Tell me the measured pIC50 of CC(CO)n1c(=O)c2cnc(Nc3ccc4c(c3)CNCC4)nc2n1-c1cccc(C(C)(C)C)n1 (stereo not shown) , please.
## Result 7.80

## Task Which pIC50 is reported for this compound? CC(C)n1c(=O)c2cnc(Nc3ccc4c(c3)CNCC4)nc2n1-c1cc(C(C)(C)C)ccn1
## Result 6.92

## Task For CC(C)n1c(=O)c2cnc(Nc3ccc4c(c3)CNCC4)nc2n1-c1ccnc(C(C)(C)F)c1 , what is its reported pIC50?
## Result 7.80

## Task Quick one: pIC50 for CC(C)n1c(=O)c2cnc(Nc3ccc4c(c3)CNCC4(C)C)nc2n1-c1ccnc(C(C)(C)C)c1 ?
## Result 7.96

---

Kindly state IC50 for each of the entries shown.
Value expressed in nM; do not type the unit.

## Task Query the reported IC50 for WEE1 kinase enzyme (Homo sapiens (Human)); item: C=CCn1c(=O)c2cnc(Nc3ccc4c(c3)CNCC4)nc2n1-c1cccc(C(C)(C)O)n1 [Example 1.1]
## Result 2.4

## Task Short answer please: IC50, WEE1 kinase enzyme (Homo sapiens (Human)), entry CC(C)n1c(=O)c2cnc(Nc3ccc4c(c3)CCNC4)nc2n1-c1cccc(N(C)S(C)(=O)=O)n1 [Example 2.645]
## Result 5

## Task Item: CC(C)n1c(=O)c2cnc(Nc3ccc4c(c3)CCNC4)nc2n1-c1cccc(C2CC2)n1 [Example 1.149] Test system: WEE1 kinase enzyme (Homo sapiens (Human)) Read-out: IC50 Value: ?
## Result 3

## Task Please state recorded IC50 (tested on WEE1 kinase enzyme (Homo sapiens (Human))) of CCn1c(=O)c2cnc(Nc3ccc4c(c3)CN(CC(=O)N(C)C)CC4)nc2n1-c1cccc(C(C)(C)O)n1 [Example 1.129]
## Result 6

## Task Hello, I am looking for reported IC50 with WEE1 kinase enzyme (Homo sapiens (Human)) for CC(C)n1c(=O)c2cnc(Nc3ccc4c(c3)CC(N(C)C)CC4)nc2n1-c1ccnc(C(C)(C)C)c1 (stereo not shown) [Example 1.171] . Could you help?
## Result 6

---

Tested on: Panc 10.05 cells
Assay: Cytotoxicity assay (resazurin) in Panc 10.05 cells
Type: cell-based
Conditions: Homo sapiens, Panc1005; Panc 10.05, resazurin; read-out: Cell Viability IC50 Panc 10.05
Could you please report measured pIC50 for the items listed next?
Worth noting: pIC50 values are minus log10 of concentrations stated in mol/L.

## Task Request - read-out pIC50 | tested on Panc 10.05 cells | compound CC(C)n1c(=O)c2cnc(Nc3ccc4c(c3)CCNC4)nc2n1-c1cccc(C(C)(C)F)n1
## Result 5.82

## Task Recall the recorded pIC50 for CC(C)n1c(=O)c2cnc(Nc3ccc4c(c3)CCNC4)nc2n1-c1ccn(C2CC2)n1 with Panc 10.05 cells and state it.
## Result 5.51

## Task Identify the measured pIC50 of CC(C)(C)c1cc(-n2c3nc(Nc4ccc5c(c4)CCNC5(C)C)ncc3c(=O)n2C2CC2)ccn1 for Panc 10.05 cells.
## Result 5.07

## Task Write down the reported pIC50 of CC(C)n1c(=O)c2cnc(Nc3ccc4c(c3)CNCC4)nc2n1-c1ccnc(C(C)(C)C)n1 , test system: Panc 10.05 cells.
## Result 6.26

---

System: WEE1 kinase enzyme (Homo sapiens (Human), UniProt P30291) | Read-out: log10 IC50
In our notation, the value equals log10 of IC50 in nM.

## Task Looking for the measured log10 IC50 of CCn1c(=O)c2cnc(Nc3ccc4c(c3)CNCC4)nc2n1-c1cccc(C(=O)NC)n1 [Example 1.25] , can you help?
## Result 2.00

## Task Entry under review: CC(C)n1c(=O)c2cnc(Nc3ccc4c(c3)CCNC4)nc2n1-c1ccnc(C(C)(C)C)n1 [Example 2.183] . Reported log10 IC50?
## Result 0.60

## Task Quick one: log10 IC50 for CC(C)(C)c1cc(-n2c3nc(Nc4ccc5c(c4)CCNC5(C)C)ncc3c(=O)n2C2CC2)ccn1 [Example 2.182] ?
## Result 1.79

## Task // query log10 IC50 value for entry C=CCn1c(=O)c2cnc(Nc3ccc4c(c3)CN(C)CC4)nc2n1-c1cccc(C(C)(C)O)n1 [Example 1.9]
## Result 0.00

## Task // query log10 IC50 value for entry CC(C)(O)c1cccc(-n2c3nc(Nc4ccc5c(c4)CCNC5)ncc3c(=O)n2C2CC2)n1 [Example 1.24]
## Result 1.36

## Task Sample CC(C)n1c(=O)c2cnc(Nc3ccc4c(c3)CCNC4(C)C)nc2n1-c1ccn(C2CC2)n1 [Example 2.643] — what was its log10 IC50?
## Result 1.41

## Task Query (compound): CCn1c(=O)c2cnc(Nc3ccc4c(c3)CN(CCO)CC4)nc2n1-c1cccc(C(C)(C)O)n1 [Example 1.128] ; field requested: log10 IC50
## Result 0.78

## Task State the recorded log10 IC50 for this entry: CCn1c(=O)c2cnc(Nc3ccc4c(c3)CCNC4)nc2n1-c1cccc(C(C)(C)O)n1 [Example 1.12]
## Result 0.60

---

What follows is a record of IC50 for WEE1 kinase enzyme (Homo sapiens (Human)).
Could you give me the number in nM? Just the number is fine.

## Task Requested read-out IC50, target or system WEE1 kinase enzyme (Homo sapiens (Human)), entry CC(C)n1c(=O)c2cnc(Nc3ccc4c(c3)CNCC4)nc2n1-c1cccc(C(C)(C)F)n1
## Result 4

## Task Provide the documented IC50 with WEE1 kinase enzyme (Homo sapiens (Human)) as the system for CC(C)n1c(=O)c2cnc(Nc3ccc4c(c3)CCNC4(C)C)nc2n1-c1ccnc(C(C)(C)F)c1
## Result 12

## Task API: value(readout= IC50, system= WEE1 kinase enzyme (Homo sapiens (Human)), query= CC(C)n1c(=O)c2cnc(Nc3ccc4c(c3)CNCC4)nc2n1-c1ccnc(C(C)(C)C)c1 )
## Result 4

## Task Lab note: need IC50 for CC(C)n1c(=O)c2cnc(Nc3ccc4c(c3)CNC4)nc2n1-c1ccnc(C(C)(C)C)c1 on WEE1 kinase enzyme (Homo sapiens (Human)), anyone have it?
## Result 14

## Task Find IC50 (WEE1 kinase enzyme (Homo sapiens (Human))) for the entry CC(C)n1c(=O)c2cnc(Nc3ccc4c(c3)NCCC4)nc2n1-c1ccnc(C(C)(C)F)c1
## Result 4150

## Task Reported IC50 for WEE1 kinase enzyme (Homo sapiens (Human)), given CC(C)n1c(=O)c2cnc(Nc3ccc4c(c3)CCNC4)nc2n1-c1cccc(C(C)(C)O)n1 ?
## Result 11

## Task WEE1 kinase enzyme (Homo sapiens (Human)) / IC50 / C=CCn1c(=O)c2cnc(Nc3ccc4c(c3)CN(C(=O)CO)CC4)nc2n1-c1cccc(C(C)(C)O)n1 : value?
## Result 4

---

Molecular target: WEE1 kinase enzyme (Homo sapiens (Human))
// NB: equality with 7 nM counts as False; only IC50 strictly below is True

## Task Does COC(C)(C)c1cc(-n2c3nc(Nc4ccc5c(c4)CCNC5)ncc3c(=O)n2C(C)C)ccn1 have IC50 strictly under 7 nM?
## Result False

## Task Item CCn1c(=O)c2cnc(Nc3ccc4c(c3)CNCC4)nc2n1-c1cccc(C(C)(C)O)n1 : IC50 beneath 7 nM, strictly?
## Result True

## Task In plain terms, does CCn1c(=O)c2cnc(Nc3ccc4c(c3)CNCC4)nc2n1-c1cccc(NC(C)=O)n1 come in under 7 nM for IC50?
## Result True

## Task Threshold test, IC50 < 7 nM: CC(C)n1c(=O)c2cnc(Nc3ccc4c(c3)CNCC4)nc2n1-c1cccc(C(C)(C)C)n1
## Result True

## Task IC50 strictly < 7 nM for this molecule? CCn1c(=O)c2cnc(Nc3ccc4c(c3)CNCC4)nc2n1-c1ccnc(C(C)(C)C)c1
## Result False
